- Target system: Neuronal acetylcholine receptor; alpha4/beta2 (Rattus norvegicus, UniProt P09483+P12390)
- Sequence (P09483 whole entry): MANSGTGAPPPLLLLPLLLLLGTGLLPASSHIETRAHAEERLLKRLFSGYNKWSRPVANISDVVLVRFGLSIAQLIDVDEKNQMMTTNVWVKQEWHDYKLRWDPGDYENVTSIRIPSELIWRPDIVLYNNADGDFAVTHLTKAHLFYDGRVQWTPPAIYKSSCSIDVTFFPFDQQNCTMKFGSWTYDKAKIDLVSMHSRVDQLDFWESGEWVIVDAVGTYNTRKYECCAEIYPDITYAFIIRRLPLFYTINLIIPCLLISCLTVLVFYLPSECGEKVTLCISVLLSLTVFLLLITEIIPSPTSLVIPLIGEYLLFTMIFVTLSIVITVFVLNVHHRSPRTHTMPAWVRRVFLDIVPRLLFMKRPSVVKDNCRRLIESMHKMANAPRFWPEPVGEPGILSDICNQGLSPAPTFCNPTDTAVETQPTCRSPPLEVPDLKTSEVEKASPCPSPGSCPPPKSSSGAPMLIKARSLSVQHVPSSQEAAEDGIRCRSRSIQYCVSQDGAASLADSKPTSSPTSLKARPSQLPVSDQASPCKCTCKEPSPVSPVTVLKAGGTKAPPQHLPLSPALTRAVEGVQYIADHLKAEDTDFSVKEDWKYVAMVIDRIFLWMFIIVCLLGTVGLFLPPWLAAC
- Sequence (P12390 whole entry): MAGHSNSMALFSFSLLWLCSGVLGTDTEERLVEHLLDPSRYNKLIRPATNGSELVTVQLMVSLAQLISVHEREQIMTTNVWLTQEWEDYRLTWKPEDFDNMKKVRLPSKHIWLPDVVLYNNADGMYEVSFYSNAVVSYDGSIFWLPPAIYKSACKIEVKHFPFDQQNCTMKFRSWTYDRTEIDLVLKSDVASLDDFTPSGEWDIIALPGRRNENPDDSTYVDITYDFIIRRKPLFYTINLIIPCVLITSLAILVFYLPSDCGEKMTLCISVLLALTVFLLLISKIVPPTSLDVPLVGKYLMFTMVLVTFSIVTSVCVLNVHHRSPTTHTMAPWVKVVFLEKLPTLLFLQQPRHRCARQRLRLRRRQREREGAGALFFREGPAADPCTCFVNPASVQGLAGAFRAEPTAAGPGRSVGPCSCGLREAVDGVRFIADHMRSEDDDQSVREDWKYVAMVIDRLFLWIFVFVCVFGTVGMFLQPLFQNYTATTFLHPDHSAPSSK
- Experiment notes: Displacement of [3H]epibatidine from rat alpha4beta2 nAChR
pIC50: −log10 of the molar value.
The label depends only on pIC50: Yes if it is at least 7, No if it is smaller.

Ask: // inclusive: pIC50 at least 7? input: O=c1c(Br)ccc2n1C[C@@H]1CNC[C@H]2C1
Result: Yes

Ask: // inclusive: pIC50 at least 7? input: O=c1ccc(Br)c2n1C[C@@H]1CNC[C@H]2C1
Result: No

Ask: // inclusive: pIC50 at least 7? input: O=c1c(I)ccc2n1C[C@@H]1CNC[C@H]2C1
Result: Yes

Ask: // inclusive: pIC50 at least 7? input: O=c1c(Br)cc(Br)c2n1C[C@@H]1CNC[C@H]2C1
Result: No

----------
Each record here notes measured IC50.
- Target system: Neuronal acetylcholine receptor; alpha4/beta2 (Rattus norvegicus, UniProt P09483+P12390)
- Experiment notes: Displacement of [3H]epibatidine from rat alpha4beta2 nAChR

Solved entries:
Ask: Requested read-out: IC50. Entry: O=c1cccc2n1C[C@@H]1CNC[C@H]2C1 [CYTISINICLINE]
Result: 69.2 nM

Ask: Requested read-out: IC50. Entry: CN1C[C@@H]2C[C@H](C1)c1cccc(=O)n1C2
Result: 112 nM

***
Ask: Requested read-out: IC50. Entry: CN1C[C@@H]2C[C@H](C1)c1ccc(Br)c(=O)n1C2
Result: 102 nM
